The reported measurements were obtained from patent US20230374132A1.

Collected koff values appear next to each entry.
system-name: T1, human CD3 E&D complex protein (Sino Biological Inc., CT026H0323H) (human, UniProt P07766 23-126; P04234 22-105)
T1 construct: bought heterodimer; also called human CD3 protein (CT026H0323H)
T1 sequence (P07766 23-126, chain 1 of 2): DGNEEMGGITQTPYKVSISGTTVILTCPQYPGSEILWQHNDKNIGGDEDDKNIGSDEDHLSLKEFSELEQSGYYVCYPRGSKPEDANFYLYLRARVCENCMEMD
T1 sequence (P04234 22-105, chain 2 of 2): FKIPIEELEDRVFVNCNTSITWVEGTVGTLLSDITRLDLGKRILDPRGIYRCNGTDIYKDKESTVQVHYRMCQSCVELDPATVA
protocol-text: BLI, antibody on sensor
Report the figure in s⁻¹ without appending any unit label.

hzsp34.12 (antibody, human IgG1, lambda, L234A L235A, V domains shown, IgG1 L234A L235A, lambda) VH: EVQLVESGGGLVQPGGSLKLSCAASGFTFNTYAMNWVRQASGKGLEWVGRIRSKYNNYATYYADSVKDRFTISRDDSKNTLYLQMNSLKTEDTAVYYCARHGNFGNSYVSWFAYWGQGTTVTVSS VL: QAVVTQEPSLTVSPGGTVTLTCRSSTGAVTTSNYANWVQQKPGQAPRTLIGGTNKRAPGVPARFSGSLLGGKAALTLLGAQPEDEAEYYCALWYSNLWVFGQGTKLTVLG: 0.00396
hzsp34.15 (antibody, human IgG1, lambda, L234A L235A, V domains shown, IgG1 L234A L235A, lambda) VH: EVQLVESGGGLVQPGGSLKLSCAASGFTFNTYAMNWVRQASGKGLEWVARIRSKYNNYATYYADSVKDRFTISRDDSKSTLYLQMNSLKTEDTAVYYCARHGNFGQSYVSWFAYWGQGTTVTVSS VL: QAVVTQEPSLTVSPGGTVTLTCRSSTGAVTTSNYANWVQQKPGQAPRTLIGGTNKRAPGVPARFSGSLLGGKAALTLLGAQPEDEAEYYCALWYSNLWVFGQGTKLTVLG: 0.00202

# context switch: different binder, same koff
Would you mind telling me what koff value was observed for hzsp34.39 (antibody, human IgG1, kappa, L234A L235A, V domains shown, IgG1 L234A L235A, kappa) VH: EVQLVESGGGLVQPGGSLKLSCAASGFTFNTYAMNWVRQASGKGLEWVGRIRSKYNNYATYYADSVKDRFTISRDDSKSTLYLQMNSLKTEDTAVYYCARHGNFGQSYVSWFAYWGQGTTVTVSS VL: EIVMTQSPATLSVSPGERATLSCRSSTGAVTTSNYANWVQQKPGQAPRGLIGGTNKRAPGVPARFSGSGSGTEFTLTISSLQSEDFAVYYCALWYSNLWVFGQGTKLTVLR ?
0.00354
